pIC50 values for IRAK4 (Homo sapiens (Human), UniProt Q9NWZ3) compiled from several publications are listed below.
pIC50: −log10 of the molar value.

* CCN(CC)[C@H]1CC[C@@H](Nc2nc(Nc3cc(C)ns3)nc3ccsc23)CC1 | 6.00 to 7.00
* CCc1nc2c(N[C@H]3CC[C@H](N4CCC(O)CC4)CC3)nc(Nc3cnn(C)c3)nc2s1 | ≥ 6.00
* COc1cc2nn(C3CCN(CCN4CCN(c5ccc6c(c5)C(=O)N(C5CCC(=O)NC5=O)C6=O)CC4)CC3)cc2cc1NC(=O)c1cccc(C(F)(F)F)n1 (stereo not shown) | 7.25

// moving on: another record for pIC50
Provide pIC50, system IRAK4 (Homo sapiens (Human), UniProt Q9NWZ3), entry Cn1cc(-n2ccc3nc(Nc4ccc5[nH]ncc5c4)nc(O[C@H]4CCOC4)c32)cn1
≥ 7.00

----------
pIC50 values for IRAK4 (Homo sapiens (Human)) compiled from several publications are listed below.
Lab note — pIC50 values are minus log10 of concentrations in M.

Recorded results for 3 compounds are shown here.
- CC(C)Nc1c(C(=O)NC[C@@H](F)C(C)(C)O)cnc2sc(-c3ccncc3)cc12: 8.32
- CC(C)Nc1cc(-n2ncc3cc(C#N)cnc32)ncc1-c1cn(CC(=O)N2CCOCC2)cn1: 7.68
- CC(C)(O)[C@H](F)CNC(=O)c1cnc(Nc2ccc3ncsc3n2)cc1NCC(F)(F)F: 8.72

Provide pIC50, system IRAK4 (Homo sapiens (Human)), entry CC(C)Nc1c(C(=O)NCCC2CCCN2)cnc2ccc(-c3cn[nH]c3)cc12 (stereo not shown)
7.94

Provide pIC50, system IRAK4 (Homo sapiens (Human)), entry CC(C)Nc1cc(-n2cnc3cc(C#N)cnc32)ncc1-c1cn(C2CN(C)C2)nn1
8.40

Provide pIC50, system IRAK4 (Homo sapiens (Human)), entry OC[C@H]1C[C@@H](Nc2nc(NC3CCCCC3)ncc2-c2nc3ccccc3s2)[C@H](O)[C@@H]1O
5.52

Provide pIC50, system IRAK4 (Homo sapiens (Human)), entry CC(C)Nc1cc(-n2ncc3cc(C#N)cnc32)ncc1-c1cn(CCCF)nn1
8.15

Provide pIC50, system IRAK4 (Homo sapiens (Human)), entry CC(C)Nc1cc(-n2ncc3cc(C#N)cnc32)ncc1-c1cc([C@H]2C[C@@H](O)CCN2)no1
8.05

Provide pIC50, system IRAK4 (Homo sapiens (Human)), entry CC(C)Nc1cc(-n2ncc3cc(C#N)cnc32)ncc1-c1cn(CC(=O)N2CCN(S(C)(=O)=O)CC2)nn1
8.40

Provide pIC50, system IRAK4 (Homo sapiens (Human)), entry CC(C)(O)[C@H](F)CNC(=O)c1cnc(-c2cnc3cc(C#N)cnn23)cc1NCCC(F)(F)F
8.40

----------
pIC50 values for IRAK4 (Homo sapiens (Human), UniProt Q9NWZ3) compiled from several publications are listed below.
Lab note — pIC50 values are minus log10 of concentrations in M.

Recorded results for 3 molecules are shown here.
• CCCn1cc(-c2cnc(-n3cnc4cnc(N)nc43)cc2NC(C)C)nn1 = 8.40
• CCn1cc(-c2ccc3ncnc(N[C@H]4CC[C@H](N(C)C)CC4)c3c2)cn1 = 7.04
• CC(C)Nc1c(C(=O)N[C@H]2C[C@H](O)C2)cnc2ccc(-c3cn[nH]c3)nc12 = 8.14

// moving on: another record for pIC50
Consider the molecule CC(C)Oc1cc2nc(C34CCC(C3)OC4)cn2cc1C(=O)Nc1cccn(C2CC2)c1=O (centres unmarked) . State its measured pIC50.
9.52
